Target: T1, 4.1G-CTD triple mutation I958D/V959D/I960D (human, UniProt O43491 939-1005, I958D | V959D | I960D)
T1 sequence (looked up): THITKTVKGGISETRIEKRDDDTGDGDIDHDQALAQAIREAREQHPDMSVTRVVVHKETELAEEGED
Assay: ITC
outcome_measure: Kd (µM)
Please respond with the number in µM and leave the unit unwritten.

Form field: reported Kd of SGRKTRSARRRTTQIINITMTKKLDV (domain or fragment, human, UniProt Q14980 1800-1825, looked up) [NuMA 1800–1825 (26-residue motif at the C-terminal region of nuclear mitotic apparatus protein)] 333

These entries and their values trace back to paper PMC8864705.
